molecular target: Aurora kinase A (AURKA) (Homo sapiens, UniProt O14965); construct: endogenous in cells; host or cells: HeLa LgBit (AURKA-HiBit KI), CRISPR/Cas9 knock-in at the endogenous AURKA locus; test: Luciferase assay for AURKA in HeLa LgBit (AURKA-HiBit KI) cell line; format: cell-based; settings: 100 nM compound, HeLa LgBit (AURKA-HiBit KI) cells, measured after 12 hours
Sequence (O14965 whole entry): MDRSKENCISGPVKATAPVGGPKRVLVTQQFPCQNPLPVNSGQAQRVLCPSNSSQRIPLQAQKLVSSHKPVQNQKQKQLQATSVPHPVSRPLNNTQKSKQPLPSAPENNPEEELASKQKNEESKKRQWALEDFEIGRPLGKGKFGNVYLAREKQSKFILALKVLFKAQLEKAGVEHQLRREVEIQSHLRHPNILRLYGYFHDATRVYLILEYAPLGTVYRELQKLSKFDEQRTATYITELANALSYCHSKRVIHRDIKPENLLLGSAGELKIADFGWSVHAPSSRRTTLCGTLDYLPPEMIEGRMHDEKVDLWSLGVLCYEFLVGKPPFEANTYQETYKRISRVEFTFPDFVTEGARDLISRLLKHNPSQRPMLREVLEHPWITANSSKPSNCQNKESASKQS
Reported property: luminescence value (Level)

| Compound | Result |
| --- | --- |
| O=C1CCC(Nc2ccc(N3CCN(CC4CC45CCN(C(=O)c4ccc(Nc6ncc(F)c(Nc7ccc(C(=O)Nc8ccccc8Cl)cc7)n6)cc4)CC5)CC3)cc2)C(=O)N1 (stereo not drawn) [Compound 30] | A (A is <0.2) |
| O=C1CCC(Nc2ccc(N3CCC(CN4C[C@H]5C[C@H](NC(=O)c6ccc(Nc7ncc(F)c(Nc8ccc(C(=O)Nc9ccccc9Cl)cc8)n7)cc6)C[C@H]5C4)CC3)cc2)C(=O)N1 (stereo partly drawn) [Compound 41] | B (B is 0.2 to 0.4) |
| O=C1CCC(Nc2ccc(N3CCC(CN4CCC5(CC4)CCN(C(=O)c4ccc(Nc6ncc(F)c(Nc7ccc(C(=O)Nc8ccccc8Cl)cc7)n6)cc4)C5)CC3)cc2)C(=O)N1 (stereo not drawn) [Compound 33] | A (A is <0.2) |
| O=C1CC[C@@H](Nc2ccc(N3CCN(CCC4CCN(NC(=O)c5ccc(Nc6ncc(F)c(Nc7ccc(C(=O)Nc8ccccc8Cl)cc7)n6)cc5)CC4)CC3)c(F)c2)C(=O)N1 [Compound 108] | A (A is <0.2) |
| O=C1CCC(c2ccc(N3CCC(CN4CC5(CC(NC(=O)c6ccc(Nc7ncc(F)c(Nc8ccc(C(=O)Nc9ccccc9Cl)cc8)n7)cc6)C5)C4)CC3)c(F)c2)C(=O)N1 (stereo not drawn) [Compound 77] | A (A is <0.2) |

Exam item: Find the recorded luminescence value (Level) belonging to O=C1CCC(c2ccc(N3CCC(CN4CC5(CCN(NC(=O)c6ccc(Nc7ncc(F)c(Nc8ccc(C(=O)Nc9ccccc9Cl)cc8)n7)cc6)CC5)C4)CC3)c(F)c2)C(=O)N1 (stereo not drawn) [Compound 97] and report it.
Marked response: A (A is <0.2)

Exam item: Find the recorded luminescence value (Level) belonging to O=C1CCC(c2cc(F)c(N3CCN(CCC4CCN(NC(=O)c5ccc(Nc6ncc(F)c(Nc7ccc(NC(=O)c8ccccc8F)cc7)n6)cc5F)CC4)CC3)cc2F)C(=O)N1 (stereo not drawn) [Compound 112] and report it.
Marked response: A (A is <0.2)
